The values you see were collected from patent US20230312529A1.

For each entry below, report its inhibitory rate on PDGFR-β value.
# target.system: PDGFRβ (Homo sapiens (Human))
# test.method.notes: Caliper Mobility Shift kinase inhibition test
# Format: biochemical
# conditions: 100 nM
State the value, then name its unit.

Challenge: Value wanted: inhibitory rate on PDGFR-β (PDGFRβ (Homo sapiens (Human))) of entry Cc1cc2c(Nc3ccc4cn[nH]c4c3)nc(Nc3ccc(N4CCN(C)CC4)cc3)nc2s1
Response given: 30.7%

Challenge: Value wanted: inhibitory rate on PDGFR-β (PDGFRβ (Homo sapiens (Human))) of entry Cc1cnc(Nc2ccc(N3CCN(C)CC3)cc2)nc1Nc1ccc2nccnc2c1
Response given: 91.0%

Challenge: Value wanted: inhibitory rate on PDGFR-β (PDGFRβ (Homo sapiens (Human))) of entry Cc1cc(Nc2ccc3cn[nH]c3c2)nc(Nc2ccc(N3CCN(C)CC3)cc2)n1
Response given: 21.2%

Challenge: Value wanted: inhibitory rate on PDGFR-β (PDGFRβ (Homo sapiens (Human))) of entry Cc1cnc(Nc2ccc(N3CCN(C)CC3)cc2)nc1Nc1cccc2[nH]ccc12
Response given: 90.3%

----------
# target.system: ABL1 (Homo sapiens (Human), UniProt P00519)
# Sequence (P00519 whole entry): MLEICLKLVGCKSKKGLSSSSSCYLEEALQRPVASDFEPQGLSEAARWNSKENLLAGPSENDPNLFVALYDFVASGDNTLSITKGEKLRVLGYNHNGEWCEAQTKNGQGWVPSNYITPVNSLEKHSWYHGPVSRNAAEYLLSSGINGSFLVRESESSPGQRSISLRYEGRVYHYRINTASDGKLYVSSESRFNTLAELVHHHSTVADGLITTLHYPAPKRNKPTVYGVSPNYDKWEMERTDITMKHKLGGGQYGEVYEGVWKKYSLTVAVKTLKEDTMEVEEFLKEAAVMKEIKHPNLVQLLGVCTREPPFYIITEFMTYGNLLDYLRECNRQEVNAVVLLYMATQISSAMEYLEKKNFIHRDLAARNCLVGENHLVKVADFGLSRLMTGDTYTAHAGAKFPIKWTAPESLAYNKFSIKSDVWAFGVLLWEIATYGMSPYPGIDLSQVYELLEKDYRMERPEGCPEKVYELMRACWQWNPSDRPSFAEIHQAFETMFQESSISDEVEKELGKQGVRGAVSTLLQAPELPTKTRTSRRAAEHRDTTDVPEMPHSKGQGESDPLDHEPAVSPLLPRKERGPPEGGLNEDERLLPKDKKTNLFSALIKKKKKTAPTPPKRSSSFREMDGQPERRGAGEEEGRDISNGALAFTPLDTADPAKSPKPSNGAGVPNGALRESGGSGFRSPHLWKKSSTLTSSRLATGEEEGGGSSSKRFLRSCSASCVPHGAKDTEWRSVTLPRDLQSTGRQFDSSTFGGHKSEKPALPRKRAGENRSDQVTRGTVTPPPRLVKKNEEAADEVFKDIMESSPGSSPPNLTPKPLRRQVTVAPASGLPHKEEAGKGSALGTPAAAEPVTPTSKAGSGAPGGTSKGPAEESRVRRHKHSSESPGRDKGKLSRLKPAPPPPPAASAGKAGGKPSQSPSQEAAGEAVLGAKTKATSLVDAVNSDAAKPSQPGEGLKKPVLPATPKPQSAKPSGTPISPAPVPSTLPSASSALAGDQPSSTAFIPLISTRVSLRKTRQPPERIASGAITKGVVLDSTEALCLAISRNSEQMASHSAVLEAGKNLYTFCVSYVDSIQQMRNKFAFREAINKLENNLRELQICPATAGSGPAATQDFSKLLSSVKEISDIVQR
# test.method.notes: Caliper Mobility Shift kinase inhibition test
# Format: biochemical
# conditions: 100 nM
For each entry below, report its inhibitory rate on ABL1 value.
// note: answer is a bare numeric in %

Challenge: Looking for the measured inhibitory rate on ABL1 of Cc1cnc(Nc2ccc(N3CCN(C)CC3)cc2)nc1Nc1cccc2[nH]ccc12 , can you help?
Response given: 78.8

Challenge: Looking for the measured inhibitory rate on ABL1 of Cc1cnc(Nc2ccc(N3CCC(F)(F)CC3)cc2)nc1Nc1ccc2cn[nH]c2c1 , can you help?
Response given: 50.6

Challenge: Looking for the measured inhibitory rate on ABL1 of Cc1cnc(Nc2ccc(N3CCC(N4CCN(C)CC4)CC3)cc2)nc1Nc1ccc2cn[nH]c2c1 , can you help?
Response given: 87.6

Challenge: Looking for the measured inhibitory rate on ABL1 of Cc1cnc(Nc2ccc(N3CCN(C)CC3)cc2)nc1Nc1ccc2[nH]ncc2c1 , can you help?
Response given: 80.9

Challenge: Looking for the measured inhibitory rate on ABL1 of Cc1cnc(Nc2ccc(N3CCN(C)CC3)cc2)nc1Nc1ccc2cn(CCNC(=O)OC(C)(C)C)nc2c1 , can you help?
Response given: 71.6

----------
For each entry below, report its inhibition at 0.1 µM value.
# target.system: PDGFRβ (Homo sapiens (Human), UniProt P09619)
# Sequence (P09619 33-1106): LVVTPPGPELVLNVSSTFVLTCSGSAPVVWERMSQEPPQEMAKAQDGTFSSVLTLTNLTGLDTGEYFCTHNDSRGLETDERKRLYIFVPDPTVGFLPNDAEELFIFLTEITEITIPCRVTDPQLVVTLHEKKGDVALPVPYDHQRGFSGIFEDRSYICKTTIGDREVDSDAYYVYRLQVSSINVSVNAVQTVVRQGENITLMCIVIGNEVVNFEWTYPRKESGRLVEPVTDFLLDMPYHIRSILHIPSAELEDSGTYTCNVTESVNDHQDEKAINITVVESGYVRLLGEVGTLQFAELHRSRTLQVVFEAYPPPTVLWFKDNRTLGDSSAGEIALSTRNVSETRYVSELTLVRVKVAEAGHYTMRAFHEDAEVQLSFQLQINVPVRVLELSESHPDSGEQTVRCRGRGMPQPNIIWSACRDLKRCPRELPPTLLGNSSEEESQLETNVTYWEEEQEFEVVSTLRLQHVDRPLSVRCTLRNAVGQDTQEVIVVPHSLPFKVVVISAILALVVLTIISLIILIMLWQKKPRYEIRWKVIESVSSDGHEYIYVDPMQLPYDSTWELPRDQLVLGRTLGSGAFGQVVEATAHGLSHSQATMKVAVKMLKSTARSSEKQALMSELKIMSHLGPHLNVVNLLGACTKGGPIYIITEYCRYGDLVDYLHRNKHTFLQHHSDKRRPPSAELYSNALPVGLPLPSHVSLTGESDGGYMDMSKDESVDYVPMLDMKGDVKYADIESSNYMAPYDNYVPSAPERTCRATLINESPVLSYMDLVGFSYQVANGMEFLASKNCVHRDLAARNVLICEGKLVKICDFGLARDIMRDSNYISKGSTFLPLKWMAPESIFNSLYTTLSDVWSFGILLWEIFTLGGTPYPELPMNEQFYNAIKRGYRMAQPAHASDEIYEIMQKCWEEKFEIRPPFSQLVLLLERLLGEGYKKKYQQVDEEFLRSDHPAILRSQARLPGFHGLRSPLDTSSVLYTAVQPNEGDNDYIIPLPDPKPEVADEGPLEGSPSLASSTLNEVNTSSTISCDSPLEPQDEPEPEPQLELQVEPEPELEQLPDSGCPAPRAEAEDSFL
# test.method.notes: Caliper Mobility Shift kinase inhibition test
# Type: biochemical
# conditions: 100 nM; read-out: inhibitory rate on PDGFR-β
// note: answer is a bare numeric in %

Challenge: Looking for the measured inhibition at 0.1 µM of COc1cc(Nc2ncc(C)c(Nc3ccc4cn[nH]c4c3)n2)ccc1N1CCN(C)CC1 [Compound 6f] , can you help?
Response given: 97

Challenge: Looking for the measured inhibition at 0.1 µM of CCN1CCN(c2ccc(Nc3ncc(C)c(Nc4ccc5cn[nH]c5c4)n3)cc2OC)CC1 [Compound 6i] , can you help?
Response given: 99.8

Challenge: Looking for the measured inhibition at 0.1 µM of Cc1cnc(Nc2ccc(N3CCN(C)CC3)cc2)nc1Nc1ccc2c(C)n[nH]c2c1 [Compound 5i] , can you help?
Response given: 98

Challenge: Looking for the measured inhibition at 0.1 µM of Cc1cnc(Nc2ccc(N3CCN(C)CC3)cc2)nc1Nc1ccc2cn[nH]c2c1 [Compound 3d] , can you help?
Response given: 99.6

Challenge: Looking for the measured inhibition at 0.1 µM of Cc1cnc(Nc2ccc(N3CCS(=O)(=O)CC3)cc2)nc1Nc1ccc2cn[nH]c2c1 [Compound 6d] , can you help?
Response given: 70.3

Challenge: Looking for the measured inhibition at 0.1 µM of Cc1cnc(Nc2ccc(N3CCN(C)CC3)cc2)nc1Nc1ccc2c(c1)CCC2 [Compound 5h] , can you help?
Response given: 88.9

Challenge: Looking for the measured inhibition at 0.1 µM of CN1CCN(c2ccc(Nc3ncc(F)c(Nc4ccc5cn[nH]c5c4)n3)cc2)CC1 [Compound 3a] , can you help?
Response given: 94.4

Challenge: Looking for the measured inhibition at 0.1 µM of Cc1cnc(Nc2ccc(N3CCN(C)CC3)cc2)nc1Nc1ccc2c(c1)CCCC2 [Compound 5g] , can you help?
Response given: 90.4

----------
# target.system: FLT3 (Homo sapiens (Human), UniProt P36888)
# Sequence (P36888 27-993): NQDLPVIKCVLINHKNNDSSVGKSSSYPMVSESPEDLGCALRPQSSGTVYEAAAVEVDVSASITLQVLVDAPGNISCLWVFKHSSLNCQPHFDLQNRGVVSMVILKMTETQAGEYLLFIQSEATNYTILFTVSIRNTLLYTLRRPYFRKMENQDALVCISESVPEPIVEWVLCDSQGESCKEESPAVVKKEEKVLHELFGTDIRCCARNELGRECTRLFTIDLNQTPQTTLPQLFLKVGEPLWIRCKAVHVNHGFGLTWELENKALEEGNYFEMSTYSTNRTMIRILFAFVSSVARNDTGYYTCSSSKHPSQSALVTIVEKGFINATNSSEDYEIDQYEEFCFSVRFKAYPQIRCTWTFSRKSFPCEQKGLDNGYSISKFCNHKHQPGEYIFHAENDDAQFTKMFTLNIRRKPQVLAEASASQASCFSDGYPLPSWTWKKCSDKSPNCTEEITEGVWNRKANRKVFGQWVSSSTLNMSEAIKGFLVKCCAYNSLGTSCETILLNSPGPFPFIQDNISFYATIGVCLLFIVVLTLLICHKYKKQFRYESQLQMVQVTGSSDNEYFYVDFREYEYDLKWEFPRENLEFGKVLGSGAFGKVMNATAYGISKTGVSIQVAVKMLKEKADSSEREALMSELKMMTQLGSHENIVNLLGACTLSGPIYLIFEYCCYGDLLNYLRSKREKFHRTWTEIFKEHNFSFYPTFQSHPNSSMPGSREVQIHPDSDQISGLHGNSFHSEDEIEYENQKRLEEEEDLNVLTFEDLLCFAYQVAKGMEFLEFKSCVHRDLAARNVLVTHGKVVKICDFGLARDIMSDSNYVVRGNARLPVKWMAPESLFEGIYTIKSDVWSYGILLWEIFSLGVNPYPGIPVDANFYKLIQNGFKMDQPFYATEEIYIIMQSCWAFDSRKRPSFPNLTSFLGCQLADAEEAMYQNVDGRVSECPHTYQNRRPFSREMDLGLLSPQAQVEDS
# test.method.notes: Caliper Mobility Shift kinase inhibition test
# Assay type: biochemical
# conditions: 100 nM
# Method: The method adopted in the test was Caliper Mobility Shift Assay, which was a detection platform based on the mobility detection technology of microfluidic chip technology. […] When IC50 was determined, each sample was provided with 10 dilutions, each with 2 multiple holes, and repeated for 3 times.
For each entry below, report its inhibitory rate on FLT3 value.
// note: answer is a bare numeric in %

Challenge: Value wanted: inhibitory rate on FLT3 (FLT3 (Homo sapiens (Human), UniProt P36888)) of entry Cc1cnc(Nc2ccc(N3CCC(F)(F)CC3)cc2)nc1Nc1ccc2cn[nH]c2c1 [Compound 6c]
Response given: 74.6

Challenge: Value wanted: inhibitory rate on FLT3 (FLT3 (Homo sapiens (Human), UniProt P36888)) of entry Cc1cnc(Nc2ccc(N3CCN(C)CC3)cc2)nc1Nc1ccc2nccnc2c1 [Compound 5e]
Response given: 69.8

Challenge: Value wanted: inhibitory rate on FLT3 (FLT3 (Homo sapiens (Human), UniProt P36888)) of entry Cc1cnc(Nc2ccc(N3CCN(C)CC3)cc2)nc1Nc1ccc2cn(CCNC(=O)OC(C)(C)C)nc2c1 [Compound 5j]
Response given: 74.3

Challenge: Value wanted: inhibitory rate on FLT3 (FLT3 (Homo sapiens (Human), UniProt P36888)) of entry Cc1cnc(Nc2ccc(N3CCN(C)CC3)cc2)nc1Nc1ccc2cn[nH]c2c1 [Compound 6g]
Response given: 87.6

Challenge: Value wanted: inhibitory rate on FLT3 (FLT3 (Homo sapiens (Human), UniProt P36888)) of entry Cc1cnc(Nc2ccc(N3CCOCC3)cc2)nc1Nc1ccc2cn[nH]c2c1 [Compound 6a]
Response given: 87.2

Challenge: Value wanted: inhibitory rate on FLT3 (FLT3 (Homo sapiens (Human), UniProt P36888)) of entry Cc1cnc(Nc2ccc(N3CCN(C)CC3)cc2)nc1Nc1ccc2[nH]ncc2c1 [Compound 5d]
Response given: 80.4

Challenge: Value wanted: inhibitory rate on FLT3 (FLT3 (Homo sapiens (Human), UniProt P36888)) of entry Cc1cnc(Nc2ccc(N3CCC(N4CCN(C)CC4)CC3)cc2)nc1Nc1ccc2cn[nH]c2c1 [Compound 6j]
Response given: 91.0

----------
# target.system: FLT3 (Homo sapiens (Human), UniProt P36888)
# test.method.notes: Caliper Mobility Shift kinase inhibition test
# Format: biochemical
# conditions: 100 nM; read-out: inhibitory rate on FLT3
reported.metric: inhibition at 0.1 µM (%)
// note: answer is a bare numeric in %

Challenge: Value wanted: inhibition at 0.1 µM (FLT3 (Homo sapiens (Human), UniProt P36888)) of entry Cc1cnc(Nc2ccc(N3CCN(C)CC3)cc2)nc1Nc1ccc2c(c1)CCCC2 [Compound 5g]
Response given: 85.7

Challenge: Value wanted: inhibition at 0.1 µM (FLT3 (Homo sapiens (Human), UniProt P36888)) of entry Cc1cnc(Nc2ccc(N3CCS(=O)(=O)CC3)cc2)nc1Nc1ccc2cn[nH]c2c1 [Compound 6d]
Response given: 78.4

Challenge: Value wanted: inhibition at 0.1 µM (FLT3 (Homo sapiens (Human), UniProt P36888)) of entry CCN1CCN(c2ccc(Nc3ncc(C)c(Nc4ccc5cn[nH]c5c4)n3)c(OC)c2)CC1 [Compound 6h]
Response given: 82.6

Challenge: Value wanted: inhibition at 0.1 µM (FLT3 (Homo sapiens (Human), UniProt P36888)) of entry Cc1cnc(Nc2ccc(N3CCN(C)CC3)cc2)nc1Nc1ccc2c(c1)CCC2 [Compound 5h]
Response given: 87.1

Challenge: Value wanted: inhibition at 0.1 µM (FLT3 (Homo sapiens (Human), UniProt P36888)) of entry COc1cc(Nc2ncc(C)c(Nc3ccc4cn[nH]c4c3)n2)ccc1N1CCN(C)CC1 [Compound 6f]
Response given: 97.8

Challenge: Value wanted: inhibition at 0.1 µM (FLT3 (Homo sapiens (Human), UniProt P36888)) of entry CN1CCN(c2ccc(Nc3ncc(Cl)c(Nc4ccc5cn[nH]c5c4)n3)cc2)CC1 [Compound 3b]
Response given: 90.2

Challenge: Value wanted: inhibition at 0.1 µM (FLT3 (Homo sapiens (Human), UniProt P36888)) of entry COc1cc(N2CCN(C)CC2)ccc1Nc1ncc(C)c(Nc2ccc3cn[nH]c3c2)n1 [Compound 6e]
Response given: 79.5

Challenge: Value wanted: inhibition at 0.1 µM (FLT3 (Homo sapiens (Human), UniProt P36888)) of entry Cc1cnc(Nc2ccc(C(=O)N3CCN(C)CC3)cc2)nc1Nc1ccc2cn[nH]c2c1 [Compound 6m]
Response given: 85.6

Challenge: Value wanted: inhibition at 0.1 µM (FLT3 (Homo sapiens (Human), UniProt P36888)) of entry Cc1cnc(Nc2ccc(N3CCN(C)CC3)cc2)nc1Nc1ccc2c(C)n[nH]c2c1 [Compound 5i]
Response given: 93.4
